This collection of values is drawn from patent US20260207767A1.

# tested.system: T1, hPD-1 His-tagged (human, UniProt Q15116 25-167)
# T1 construct: also called recombinant hPD-1 (AcroBio)
# T1 sequence (Q15116 25-167 limits assumed): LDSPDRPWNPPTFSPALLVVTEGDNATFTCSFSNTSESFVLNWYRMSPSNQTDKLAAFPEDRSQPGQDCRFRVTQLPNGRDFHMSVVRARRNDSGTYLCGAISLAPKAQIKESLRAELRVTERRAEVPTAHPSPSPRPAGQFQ
# protocol.summary: BLI (legend: SPR), Ab on sensor
readout.type: Kd (nM)
Field: numeric (nM). Do not append units.

According to the records, this binder 40B20 (antibody, V domains shown, used with CH1,2,3 and corresponding CL) VH: EVQLVESGGGLVQPGGSLRLSCAASGFTFSSYSMNWVRQAPGKGLQWVSYITSSSNTMYYADSVKGRFTISRDNAKNSLYLQMNSLRDEDTAVYYCASIVGAPFDYWGQGTLVTVSS VL: EIVMTQSPATLSVSPGERATLSCRASQSVSSSLAWYQQKPGQAPRLLIYGASTRATGIPARFSGSGSGTEFTLTISSLQSEDFAAYYCQQYNNWPFTFGPGTKVDIK displays Kd of 9.61

According to the records, this binder 56H02 (antibody, V domains shown, used with CH1,2,3 and corresponding CL) VH: QVQLVQSGAEVKKPGASVKVSCKASGYTFTSYFMHWVRQAPGQGLEWMGLINPDGGNTDYAQKFQGRVTMTRDTSTSTVYMELSSLRSEDTAVYYCARDGNYYDSSGYYYPDAFDIWGQGTMVTVSS VL: SSELTQDPAVSVALGQTVRITCQGDSLRRFYASWYQQKPGQAPVIVIYGKDNRPSGTPDRFSGSTSGNTASLTITGAQAEDEADYYCNSRDSSGTHVVFGGGTKLTVL displays Kd of 0.228

According to the records, this binder 39F23 (antibody, V domains shown, used with CH1,2,3 and corresponding CL) VH: QVQLVESGGGVGQPGRSLRLSCAASGFTFSNYGMHWVRQAPGKGLEWVAVIWYDGSKKYYADSVKGRFTISRDNSKNTLYLQMNSLRVEDTAVYYCVGNSGHWGQGTLVTVSS VL: DIVMTQTPLSLPVTPGEPASISCRSSQSLLDSDDGNTYLDWYLQKPGQSPQLLIYTLSYRASGVPDRFSGSGSGTDFTLKISRVEAEDVGVYYCMQCIEFPHTFGGGTKVEIK displays Kd of 1.03

The record that follows has no Kd shown yet.
According to the records, this binder 20H02 (antibody, V domains shown, used with CH1,2,3 and corresponding CL) VH: EVLLVESGGGLVQPGGSLRLSCAASGFTFSSYSMNWVRQAPGKGLEWVSFISSSSPTLYYADSVKGRFTISRDNAKNSLYLQMNSLRDEDTAVYYCARQGLTPFDYWGQGTLVTVSS VL: EIVMTQSPATLSVFPGERATLSCRASQSVSSYLAWYQQKPGQAPRLLIYGASTRATGIPARVSGSGSGTEFILTISSLQSEDFAVYYCQQYNNWPYTFGQGTKLEIK displays Kd of 2.43
